study.system: IRAK1 (Homo sapiens, UniProt P51617)
Construct: His-TEV-IRAK1 (194-712); His (N); TEV cleavage site (N)
Sequence (P51617 194-712): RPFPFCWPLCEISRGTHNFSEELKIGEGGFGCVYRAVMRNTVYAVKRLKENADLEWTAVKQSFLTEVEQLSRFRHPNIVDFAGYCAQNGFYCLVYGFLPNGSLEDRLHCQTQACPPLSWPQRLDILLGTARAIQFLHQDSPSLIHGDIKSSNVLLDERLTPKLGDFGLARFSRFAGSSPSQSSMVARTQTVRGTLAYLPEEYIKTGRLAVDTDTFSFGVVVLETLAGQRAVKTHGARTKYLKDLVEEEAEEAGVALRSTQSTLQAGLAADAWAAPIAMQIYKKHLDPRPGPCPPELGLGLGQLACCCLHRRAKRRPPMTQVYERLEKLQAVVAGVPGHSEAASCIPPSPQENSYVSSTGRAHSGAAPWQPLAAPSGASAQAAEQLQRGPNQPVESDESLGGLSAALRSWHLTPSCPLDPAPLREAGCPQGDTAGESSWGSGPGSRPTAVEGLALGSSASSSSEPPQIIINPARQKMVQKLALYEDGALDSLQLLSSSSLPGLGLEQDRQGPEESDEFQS
method.description: IRAK1 enzymatic assay (ADP-Glo luminescence)
experimental.conditions: purified human recombinant His-TEV-IRAK1 (194-712)
Method: IRAK1 is a human purified recombinant enzyme (His-TEV-IRAK1 (194-712)) In this assay, IRAK1 hydrolyses ATP and autophosphorylates. Measurement of IRAK-1 inhibition is performed in 384-well format based on luminescence assay (ADP-Glo™ Kinase Assay from Promega). […] After 20 minutes of incubation at RT, the luminescence signal is measured with a luminometer (PerkinElmer Envision or equivalent reader).
Measured IC50, listed per entry for reference.

Task: Report IC50 on IRAK1 (Homo sapiens, UniProt P51617) for this entry: COc1cc2c(cc1N1CCOCC1=O)[nH]/c(=N\C(=O)c1cccc(CO)c1)n2CCCO
Result: 100 to 1000 nM

Task: Look up and report IC50, with IRAK1 (Homo sapiens, UniProt P51617) as system, for O=C(/N=c1\[nH]c2cc(N3CCOCC3=O)ccc2n1C1(CCO)CCCCC1)c1cccc(C(F)F)c1
Result: > 1000 nM

Task: Send back IRAK1 (Homo sapiens, UniProt P51617) IC50 of CC1(C)OCCN(c2ccc3c(c2)[nH]/c(=N\C(=O)c2cccc(C(F)(F)F)c2)n3CCCO)C1=O only.
Result: ≤ 100 nM

Task: Report its IC50 with IRAK1 (Homo sapiens, UniProt P51617) as the test system: COc1cc2c(cc1N1CCCOC1=O)[nH]/c(=N\C(=O)c1cccc(C(F)F)c1)n2CCCO
Result: ≤ 100 nM

Task: Fetch value of IC50 on IRAK1 (Homo sapiens, UniProt P51617) for O=C(/N=c1\[nH]c2cc(N3CCOCC3=O)ccc2n1C1CCS(=O)(=O)CC1)c1cccc(C(F)(F)F)c1 .
Result: 100 to 1000 nM

***
Task: Answer with IC50 of CC(F)(F)c1cccc(C(=O)/N=c2\[nH]c3cc(N4CCOCC4=O)ccc3n2CCCO)c1 measured for IRAK1 (Homo sapiens, UniProt P51617).
Result: 100 to 1000 nM

Task: Quote IC50 with test system IRAK1 (Homo sapiens, UniProt P51617) for C[C@H](CCO)n1/c(=N/C(=O)c2cccc(C(F)(F)F)c2)[nH]c2cc(N3CCOCC3=O)ccc21
Result: 100 to 1000 nM

====

Reported pIC50 is given for each of the following molecules.
study.system: IRAK1 (Homo sapiens, UniProt P51617)
Construct: His-TEV-IRAK1 (194-712); His (N); TEV cleavage site (N)
method.description: IRAK1 enzymatic assay (ADP-Glo luminescence)
experimental.conditions: purified human recombinant His-TEV-IRAK1 (194-712)
pIC50: −log10 of the molar value.

Consider the reported pIC50 for these molecules:
Task: Retrieve pIC50 measured for O=C(/N=c1\[nH]c2cc(N3CCOCC3=O)ccc2n1CCCCO)c1cccc(C(F)F)c1 and print it.
Result: ≥ 7.00

Task: Give the value of pIC50 reported for the following: O=C(/N=c1\[nH]c2cc(N3CCOCC3=O)ccc2n1CCCO)c1cccc(CO)c1
Result: 6.00 to 7.00

Task: In one line, give reported pIC50 of the entry Cc1cc2c(cc1N1CCOCC1=O)[nH]/c(=N\C(=O)c1cc(F)cc(C(F)(F)F)c1)n2CCCO .
Result: ≥ 7.00

Task: Please give the documented pIC50 of O=C(/N=c1\[nH]c2cc(N3CCOCC3=O)ccc2n1CCCO)c1cccc(CF)c1
Result: 6.00 to 7.00

Task: Please list pIC50 recorded for the molecule CCNC(=O)N1CCC(n2/c(=N/C(=O)c3cccc(C(F)(F)F)c3)[nH]c3cc(N4CCOCC4=O)ccc32)CC1
Result: 6.00 to 7.00

New cases:
Task: Read off the recorded pIC50 for CSCCn1/c(=N/C(=O)c2cccc(C(F)F)c2)[nH]c2cc(N3CCOCC3=O)ccc21
Result: 6.00 to 7.00

Task: Return reported pIC50. Input molecule: N#Cc1cccc(C(=O)/N=c2\[nH]c3cc(N4CCOCC4=O)ccc3n2CC2(CO)CC2)c1
Result: ≥ 7.00
